- Test system: TICs (Ovarian 2393A)
- procedure.details: Ovarian tumor-initiating cell growth inhibition (Alamar Blue)
- Type: cell-based
- settings: 144 h; Ovarian 2393A TICs, 6 days; read-out: Tumor Initiating Cell GI50 Range Ovarain 2393A
value.kind: GI50

Below: 3 compounds and their reported GI50.
{"columns": ["compound", "value.kind", "assay.value"],
 "data": [
  ["O=C(N[C@H](c1ccccn1)C1CC1)c1ccc2[nH]nc(-c3ccc(OC4CC5CCC(C4)N5)cc3)c2c1 (stereo partly shown) [Example A374]", "GI50", "0.1 to 0.5 µM"],
  ["O=C(N[C@H](c1ncccc1Cl)C1CC1)c1ccc2[nH]nc(-c3ccc(OC4CCN(C5COC5)CC4)cc3)c2c1 [Example A216]", "GI50", "< 0.1 µM"],
  ["CC(C)C(NC(=O)c1ccc2[nH]nc(-c3ccc(O[C@H]4C[C@H]5CCC[C@@H](C4)N5C)cc3)c2c1)c1ccccc1Cl (stereo partly shown) [Example A394]", "GI50", "0.1 to 0.5 µM"]
]}

Ask | Return GI50 for the following compound: CN1C2CCC1CC(Oc1ccc(-c3n[nH]c4ccc(C(=O)N[C@@H](c5ccccc5)C5CC5)cc34)cc1)C2 (stereo partly shown) [Example A378]
Reply | 0.1 to 0.5 µM

Ask | Return GI50 for the following compound: CN1[C@@H]2CC[C@H]1C[C@@H](Oc1ccc(-c3n[nH]c4ccc(C(=O)NCC5(c6ccccc6)CCOCC5)cc34)cc1)C2 [Example A484]
Reply | 0.1 to 0.5 µM
